# Tested on: SNB-75 CNS
# assay method text: NCI tumour cell line growth inhibition, 48 h
measured attribute: TGI

compound=CC(=O)OCCc1cc2ccccc2oc1=O result="> 100 µM"

Lookup result for COc1ccc(C2CC(c3cccc(Nc4ccncc4)c3)=NN2c2ccccc2)cc1 (stereo unspecified) ; measured TGI: 5.23 µM

Lookup result for O=C(NCCNC1=CC(=O)c2nc3ccccc3c3ccnc1c23)c1cnccn1 ; measured TGI: > 100 µM

Lookup result for CC1CC[C@@]2(OC1)OC1C[C@H]3[C@@H]4CC=C5C[C@@H](OC6OC(CO)C(OC7OC(CO)C(O)C(O)C7O)C(O)C6OC6OC(C)C(O)C(O)C6O)CC[C@]5(C)[C@H]4CC[C@]3(C)C1[C@@H]2C (stereo partly specified) ; measured TGI: 5.47 µM

Lookup result for Clc1ccc(/C=C/c2csnn2)cc1 ; measured TGI: > 100 µM

Lookup result for COc1ccc(S(=O)(=O)NNS(C)(=O)=O)cc1OC ; measured TGI: > 100 µM

Lookup result for COc1ccc(/C(C#N)=C2/O/C(=N/N)C(c3ccc(OC)c(OC)c3)C2=O)cc1OC (stereo unspecified) ; measured TGI: > 100 µM

Lookup result for O=c1c2ccccc2n2nnc3ccc(NCCNCCO)c1c32 ; measured TGI: 7.54 µM

Lookup result for COC(=O)c1sc(=S)c2sc(C(=O)OC)c(C(=O)OC)c2c1C(=O)OC ; measured TGI: > 100 µM

Lookup result for CN(C)CCC(/C=C/c1ccccc1)=N\Nc1c(F)c(F)c(F)c(F)c1F ; measured TGI: > 100 µM

Lookup result for COc1cc(COC(=O)N(C)[C@@H](Cc2ccccc2)C(=O)O)c([N+](=O)[O-])cc1OC ; measured TGI: > 100 µM

Lookup result for N#Cc1cc2c(n(C3OC(CO)C(O)C(O)C3O)c1=S)CCC2 (stereo unspecified) ; measured TGI: > 100 µM

Lookup result for O=C(NCCOC(=O)CCCCCCCCC(=O)OCCNC(=O)NC(=O)c1cn(Cc2ccccc2)c(=O)[nH]c1=O)NC(=O)c1cn(Cc2ccccc2)c(=O)[nH]c1=O ; measured TGI: > 100 µM

Lookup result for COc1ccccc1CNCCCN1C(=O)c2ccc3c4c(ccc(c24)C1=O)C(=O)N(CCCNCCCCN)C3=O ; measured TGI: 1.67 µM

Lookup result for CCN(CCCl)c1cc(CN(C)C)cc(NC(=O)c2ccc(C(=O)Nc3cccc(N(CCCl)NN)c3)cc2)c1 ; measured TGI: 0.775 µM

Lookup result for CCOC(=O)/C=C(/OCC)[C@@H]1C(C(=O)c2ccc(Cl)cc2)[C@@H]1/C(=C\C(=O)OCC)OCC (stereo partly specified) ; measured TGI: > 100 µM

Lookup result for CC[C@]1(O)C[C@@H]2CN(CCc3c([nH]c4ccccc34)[C@@](C(=O)OC)(c3cc4c(cc3OC)N(C)[C@H]3[C@@](O)(C(=O)OC)[C@H](OC(=O)CCCBr)[C@]5(CC)C=CCN6CC[C@]43[C@@H]65)C2)C1 ; measured TGI: < 0.01 µM

Lookup result for O=C(O)c1cc2ccc(Cl)cc2c(O)c1C1=CCCCC1 ; measured TGI: 34.7 µM

Lookup result for Cc1cc(C)nc(NS(=O)(=O)c2ccc(NC(=O)c3ccc4nc5ccccc5c(Nc5ccc(S(=O)(=O)N=C(N)N)cc5)c4c3)cc2)n1 ; measured TGI: > 100 µM

Lookup result for CN(C)CN(C)c1nc(N(C)C)nc(N(C)C)n1 ; measured TGI: > 100 µM

Lookup result for NCC[PH+](c1ccccc1)c1ccccc1.NCC[PH+](c1ccccc1)c1ccccc1.[Cl-].[Pt+4] ; measured TGI: > 100 µM
